Test system: Cotton Aphid (Aphis gossypii)
Experiment: Insecticidal test for cotton aphid in a foliar spray assay
Format: in vivo
Conditions: 72 h, 200 ppm foliar spray on squash or cotton seedlings, live aphids counted after three days, Abbott's corrected % control, read-out: APHIGO % Ctrl @ 200 ppm
Would you mind telling me the reported inhibition at 200 ppm of each entry?

IN: Which measured inhibition at 200 ppm value corresponds to `CCOC(=O)Nc1nnc(-c2cccnc2)s1` ?
OUT: 0 to 80%

IN: Which measured inhibition at 200 ppm value corresponds to `CSCC(=O)N(C)c1nnc(-c2cccnc2)s1` ?
OUT: 80 to 100%

IN: Which measured inhibition at 200 ppm value corresponds to `CSCC(C)(C)C(=O)N(C)c1nnc(-c2cccnc2)s1` ?
OUT: 80 to 100%

IN: Which measured inhibition at 200 ppm value corresponds to `CCSCC(=O)N(C)c1nnc(-c2cccnc2)s1` ?
OUT: 80 to 100%

IN: Which measured inhibition at 200 ppm value corresponds to `CN(C(=O)CCSC(c1ccccc1)(c1ccccc1)c1ccccc1)c1nnc(-c2cccnc2)s1` ?
OUT: < 0%

IN: Which measured inhibition at 200 ppm value corresponds to `CC(C)SCCC(=O)N(C)c1nnc(-c2cccnc2)s1` ?
OUT: 80 to 100%

IN: Which measured inhibition at 200 ppm value corresponds to `CSCCC(=O)Nc1nnc(-c2cccnc2)s1` ?
OUT: 0 to 80%

IN: Which measured inhibition at 200 ppm value corresponds to `CSCCC(=O)N(C)c1nnc(-c2cccnc2)s1` ?
OUT: 80 to 100%

IN: Which measured inhibition at 200 ppm value corresponds to `CCN(C(=O)CCSC)c1nnc(-c2cccnc2)s1` ?
OUT: 80 to 100%

IN: Which measured inhibition at 200 ppm value corresponds to `COC(=O)CCC(=O)N(c1ccccc1)c1nnc(-c2cccnc2)s1` ?
OUT: 0 to 80%

IN: Which measured inhibition at 200 ppm value corresponds to `CN(C(=O)C(C)(C)CS(C)(=O)=O)c1nnc(-c2cccnc2)s1` ?
OUT: 80 to 100%

IN: Which measured inhibition at 200 ppm value corresponds to `COC(=O)CCC(=O)N(C)c1nnc(-c2ccncc2)s1` ?
OUT: 0 to 80%

IN: Which measured inhibition at 200 ppm value corresponds to CN(C(=O)CC[S+](C)[O-])c1nnc(-c2cccnc2)s1 (centres unmarked) ?
OUT: 80 to 100%

IN: Which measured inhibition at 200 ppm value corresponds to `CN(C(=O)CCSCCc1ccccc1)c1nnc(-c2cccnc2)s1` ?
OUT: 0 to 80%

IN: Which measured inhibition at 200 ppm value corresponds to `CSCOC(=O)N(C)c1nnc(-c2cccnc2)s1` ?
OUT: 0 to 80%

IN: Which measured inhibition at 200 ppm value corresponds to `CSCCC(=O)N(C)c1nnc(-c2cnccc2C(F)(F)F)s1` ?
OUT: 0 to 80%

IN: Which measured inhibition at 200 ppm value corresponds to `CCOC(=O)N(C)c1nnc(-c2cccnc2)s1` ?
OUT: 0 to 80%

---

observable: melting point

IN: Which measured melting point value corresponds to `CSCCOC(=O)N(C)c1nnc(-c2cccnc2)s1` ?
OUT: 126 to 128 °C

IN: Which measured melting point value corresponds to `CSCCOC(=O)N(C)c1nnc(-c2cncc(F)c2)s1` ?
OUT: 104 to 106 °C

IN: Which measured melting point value corresponds to `CN(C(=O)CCN)c1nnc(-c2cccnc2)s1` ?
OUT: 110 to 112 °C

IN: Which measured melting point value corresponds to CN(C(=O)OCC[S+](C)[O-])c1nnc(-c2cccnc2)s1 (stereo not shown) ?
OUT: 170 to 172 °C

IN: Which measured melting point value corresponds to `CCOC(=S)N(C)c1nnc(-c2cncc(F)c2)s1` ?
OUT: 137 to 140 °C

IN: Which measured melting point value corresponds to `CSCC(=O)N(C)c1nnc(-c2cccnc2)s1` ?
OUT: 135 to 139 °C

IN: Which measured melting point value corresponds to `CN(C(=O)CCNC#N)c1nnc(-c2cccnc2)s1` ?
OUT: 155 to 159 °C

IN: Which measured melting point value corresponds to `CCSCCC(=O)N(C)c1nnc(-c2cccnc2)s1` ?
OUT: 70 to 72 °C

IN: Which measured melting point value corresponds to `CC(C)SCCC(=O)N(C)c1nnc(-c2cccnc2)s1` ?
OUT: 100 to 105 °C

IN: Which measured melting point value corresponds to `CN(C(=O)CCSCCc1ccccc1)c1nnc(-c2cccnc2)s1` ?
OUT: 105 to 108 °C

---

Would you mind telling me the reported melting point of each entry?

IN: Which measured melting point value corresponds to `CSC(=O)N(C)c1nnc(-c2cccnc2)s1` ?
OUT: 192 to 194 °C

IN: Which measured melting point value corresponds to `COC(=O)CCC(=O)N(C)c1nnc(-c2cccnc2)s1` ?
OUT: 152 to 154 °C

IN: Which measured melting point value corresponds to `CCSCC(=O)N(C)c1nnc(-c2cccnc2)s1` ?
OUT: 87 to 92 °C

IN: Which measured melting point value corresponds to `CSCCCC(=O)N(C)c1nnc(-c2cccnc2)s1` ?
OUT: 93 to 95 °C

IN: Which measured melting point value corresponds to `COCCNC(=S)N(C)c1nnc(-c2cccnc2)s1` ?
OUT: 118 to 121 °C

IN: Which measured melting point value corresponds to CN(C(=O)C1(C[S+](C)[O-])CC1)c1nnc(-c2cccnc2)s1 (stereo not shown) ?
OUT: 166 to 168 °C

IN: Which measured melting point value corresponds to `CO/N=C(\C)CCC(=O)N(C)c1nnc(-c2cccnc2)s1` ?
OUT: 114 to 121 °C

IN: Which measured melting point value corresponds to `CSCCC(=O)Nc1nnc(-c2cccnc2)s1` ?
OUT: 211 to 212 °C

IN: Which measured melting point value corresponds to `COC(=O)CCC(=O)N(C)c1nnc(-c2ccncc2)s1` ?
OUT: 175 to 177 °C

IN: Which measured melting point value corresponds to `CN(C(=O)CCSC(c1ccccc1)(c1ccccc1)c1ccccc1)c1nnc(-c2cccnc2)s1` ?
OUT: 60 to 75 °C

---

Would you mind telling me the reported melting point of each entry?

IN: Which measured melting point value corresponds to CCN(C(=O)CCSC)c1nnc(-c2cccnc2)s1 [Compound 9] ?
OUT: 116 to 120 °C

IN: Which measured melting point value corresponds to CN(C(=O)CCS)c1nnc(-c2cccnc2)s1 [Compound 25] ?
OUT: 149 to 151 °C

IN: Which measured melting point value corresponds to CN(C(=O)C(C)(C)C/S(C)=N/C#N)c1nnc(-c2cccnc2)s1 (centres unmarked) [Compound 39] ?
OUT: 42 to 52 °C

IN: Which measured melting point value corresponds to CSCCC(=O)N(C)c1nnc(-c2ccncc2)s1 [Compound 96] ?
OUT: 152 to 154 °C

IN: Which measured melting point value corresponds to CN(C(=O)CCS(=O)(=O)Cc1ccccc1)c1nnc(-c2cccnc2)s1 [Compound 40] ?
OUT: 198 to 201 °C

---

Test system: Cotton Aphid (Aphis gossypii)
Test: Insecticidal test for cotton aphid in a foliar spray assay
Type: in vivo
Conditions: 72 h, 200 ppm foliar spray on squash or cotton seedlings, live aphids counted after three days, Abbott's corrected % control, read-out: APHIGO % Ctrl @ 200 ppm
observable: inhibition at 200 ppm

IN: State its inhibition at 200 ppm on Cotton Aphid (Aphis gossypii): `CN(C(=O)CCS(C)(=O)=O)c1nnc(-c2cccnc2)s1`
OUT: 80 to 100%

IN: State its inhibition at 200 ppm on Cotton Aphid (Aphis gossypii): CSCC(Cc1ccccc1)C(=O)N(C)c1nnc(-c2cccnc2)s1 (stereo not drawn)
OUT: 0 to 80%

IN: State its inhibition at 200 ppm on Cotton Aphid (Aphis gossypii): `COC(=O)CCC(=O)N(C)c1nnc(-c2cccnc2)s1`
OUT: 80 to 100%

IN: State its inhibition at 200 ppm on Cotton Aphid (Aphis gossypii): CN(C(=O)C1(C[S+](C)[O-])CC1)c1nnc(-c2cccnc2)s1 (stereo not drawn)
OUT: 80 to 100%

IN: State its inhibition at 200 ppm on Cotton Aphid (Aphis gossypii): CC(CS(C)(=O)=O)C(=O)N(C)c1nnc(-c2cccnc2)s1 (stereo not drawn)
OUT: 80 to 100%

IN: State its inhibition at 200 ppm on Cotton Aphid (Aphis gossypii): `CN(CCC(=O)N(C)c1nnc(-c2cccnc2)s1)C(=O)OCc1ccccc1`
OUT: < 0%

IN: State its inhibition at 200 ppm on Cotton Aphid (Aphis gossypii): `COCCCC(=O)N(C)c1nnc(-c2cccnc2)s1`
OUT: 80 to 100%

IN: State its inhibition at 200 ppm on Cotton Aphid (Aphis gossypii): `CN(C(=O)CCNC#N)c1nnc(-c2cccnc2)s1`
OUT: 80 to 100%

IN: State its inhibition at 200 ppm on Cotton Aphid (Aphis gossypii): CN(C(=O)C(C)(C)C/S(C)=N/C#N)c1nnc(-c2cccnc2)s1 (stereo not drawn)
OUT: 80 to 100%

IN: State its inhibition at 200 ppm on Cotton Aphid (Aphis gossypii): `CSCC1(C(=O)N(C)c2nnc(-c3cccnc3)s2)CC1`
OUT: 80 to 100%

IN: State its inhibition at 200 ppm on Cotton Aphid (Aphis gossypii): `CC(C)(CS(C)(=O)=O)C(=O)Nc1nnc(-c2cccnc2)s1`
OUT: 80 to 100%

IN: State its inhibition at 200 ppm on Cotton Aphid (Aphis gossypii): `CN(C(=O)CCN)c1nnc(-c2cccnc2)s1`
OUT: 80 to 100%

IN: State its inhibition at 200 ppm on Cotton Aphid (Aphis gossypii): `CN(C(=O)CCS)c1nnc(-c2cccnc2)s1`
OUT: 80 to 100%

IN: State its inhibition at 200 ppm on Cotton Aphid (Aphis gossypii): `CCOC(=O)CCC(=O)N(C)c1nnc(-c2cccnc2)s1`
OUT: 80 to 100%

IN: State its inhibition at 200 ppm on Cotton Aphid (Aphis gossypii): `CN(C(=O)CCSCc1ccccc1)c1nnc(-c2cccnc2)s1`
OUT: 0 to 80%

IN: State its inhibition at 200 ppm on Cotton Aphid (Aphis gossypii): `CN(C(=O)CCNC(=O)OC(C)(C)C)c1nnc(-c2cccnc2)s1`
OUT: 80 to 100%

IN: State its inhibition at 200 ppm on Cotton Aphid (Aphis gossypii): CSCC(C)C(=O)N(C)c1nnc(-c2cccnc2)s1 (stereo not drawn)
OUT: 80 to 100%

IN: State its inhibition at 200 ppm on Cotton Aphid (Aphis gossypii): `CCC(CC)(CSC)C(=O)N(C)c1nnc(-c2cccnc2)s1`
OUT: 80 to 100%

IN: State its inhibition at 200 ppm on Cotton Aphid (Aphis gossypii): `CSCCC(=O)N(c1ccccc1)c1nnc(-c2cccnc2)s1`
OUT: < 0%

IN: State its inhibition at 200 ppm on Cotton Aphid (Aphis gossypii): `CSCCCC(=O)N(C)c1nnc(-c2cccnc2)s1`
OUT: 80 to 100%

IN: State its inhibition at 200 ppm on Cotton Aphid (Aphis gossypii): `CN(C(=O)C1(CS(C)(=O)=O)CC1)c1nnc(-c2cccnc2)s1`
OUT: 80 to 100%

IN: State its inhibition at 200 ppm on Cotton Aphid (Aphis gossypii): CCSC(C)CC(=O)N(C)c1nnc(-c2cccnc2)s1 (stereo not drawn)
OUT: 80 to 100%

IN: State its inhibition at 200 ppm on Cotton Aphid (Aphis gossypii): `CN(C(=O)CCSC(F)(F)F)c1nnc(-c2cccnc2)s1`
OUT: 80 to 100%

IN: State its inhibition at 200 ppm on Cotton Aphid (Aphis gossypii): `CCSCCC(=O)N(C)c1nnc(-c2cccnc2)s1`
OUT: 80 to 100%

IN: State its inhibition at 200 ppm on Cotton Aphid (Aphis gossypii): `COCCOC(=O)N(C)c1nnc(-c2cccnc2)s1`
OUT: 80 to 100%

IN: State its inhibition at 200 ppm on Cotton Aphid (Aphis gossypii): `CN(C(=O)CCNC(=O)OCc1ccccc1)c1nnc(-c2cccnc2)s1`
OUT: 0 to 80%

IN: State its inhibition at 200 ppm on Cotton Aphid (Aphis gossypii): `CC(=O)SCCC(=O)N(C)c1nnc(-c2cccnc2)s1`
OUT: 0 to 80%

IN: State its inhibition at 200 ppm on Cotton Aphid (Aphis gossypii): CCS(=O)(=O)C(C)CC(=O)N(C)c1nnc(-c2cccnc2)s1 (stereo not drawn)
OUT: 80 to 100%

IN: State its inhibition at 200 ppm on Cotton Aphid (Aphis gossypii): `CN(C(=O)CCS(=O)(=O)Cc1ccccc1)c1nnc(-c2cccnc2)s1`
OUT: < 0%

IN: State its inhibition at 200 ppm on Cotton Aphid (Aphis gossypii): CN(C(=O)C(C)(C)C[S+](C)[O-])c1nnc(-c2cccnc2)s1 (stereo not drawn)
OUT: 80 to 100%

IN: State its inhibition at 200 ppm on Cotton Aphid (Aphis gossypii): `CC(=O)CCC(=O)N(C)c1nnc(-c2cccnc2)s1`
OUT: 80 to 100%

IN: State its inhibition at 200 ppm on Cotton Aphid (Aphis gossypii): `CCSCC(C)(C)C(=O)N(C)c1nnc(-c2cccnc2)s1`
OUT: 80 to 100%

IN: State its inhibition at 200 ppm on Cotton Aphid (Aphis gossypii): `CSCC(C)(C)C(=O)Nc1nnc(-c2cccnc2)s1`
OUT: 80 to 100%

IN: State its inhibition at 200 ppm on Cotton Aphid (Aphis gossypii): `CN(C(=O)OCCS(C)(=O)=O)c1nnc(-c2cccnc2)s1`
OUT: 0 to 80%

IN: State its inhibition at 200 ppm on Cotton Aphid (Aphis gossypii): `CO/N=C(\C)CCC(=O)N(C)c1nnc(-c2cccnc2)s1`
OUT: 80 to 100%

IN: State its inhibition at 200 ppm on Cotton Aphid (Aphis gossypii): `CSC(=O)N(C)c1nnc(-c2cccnc2)s1`
OUT: 0 to 80%

IN: State its inhibition at 200 ppm on Cotton Aphid (Aphis gossypii): `CSCCOC(=O)N(C)c1nnc(-c2cccnc2)s1`
OUT: 80 to 100%

IN: State its inhibition at 200 ppm on Cotton Aphid (Aphis gossypii): `CN(C(=O)CCSc1ccccc1)c1nnc(-c2cccnc2)s1`
OUT: 0 to 80%

IN: State its inhibition at 200 ppm on Cotton Aphid (Aphis gossypii): CN(C(=O)OCC[S+](C)[O-])c1nnc(-c2cccnc2)s1 (stereo not drawn)
OUT: 80 to 100%

Recorded values, source patent US8912338B2.
